- target.desc: Muscarinic acetylcholine receptor M2 (Homo sapiens, UniProt P08172); also: assay procedure not described here
- Sequence (P08172 whole entry): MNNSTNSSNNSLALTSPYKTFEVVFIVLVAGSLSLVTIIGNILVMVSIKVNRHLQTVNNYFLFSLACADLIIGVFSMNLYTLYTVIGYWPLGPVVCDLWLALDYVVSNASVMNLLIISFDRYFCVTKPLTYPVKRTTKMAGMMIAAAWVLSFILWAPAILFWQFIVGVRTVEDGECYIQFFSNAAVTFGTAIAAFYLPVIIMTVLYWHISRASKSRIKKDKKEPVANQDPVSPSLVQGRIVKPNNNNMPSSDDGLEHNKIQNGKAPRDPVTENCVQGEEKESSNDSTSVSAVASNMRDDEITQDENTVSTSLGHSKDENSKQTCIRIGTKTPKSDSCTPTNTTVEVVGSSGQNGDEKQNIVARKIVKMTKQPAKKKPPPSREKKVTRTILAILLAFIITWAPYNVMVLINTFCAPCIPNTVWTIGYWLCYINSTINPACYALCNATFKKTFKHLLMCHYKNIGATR
- Assay type: functional, cell-based
value.type: AC50

Answered cases to consult:
- CCCC(C)(COC(N)=O)COC(=O)NC(C)C (configuration not stated) [CARISOPRODOL]: > 10 µM
- Nc1ccn([C@@H]2O[C@H](CO)[C@@H](O)C2(F)F)c(=O)n1 [GEMCITABINE]: > 10 µM
- CO/N=C(\C(=O)N[C@@H]1C(=O)N2C(C(=O)O)=C(COC(N)=O)CS[C@H]12)c1ccco1 [CEFUROXIME]: > 30 µM

Indicate its recorded AC50; the molecule in question is CC(=O)S[C@@H]1CC2=CC(=O)CC[C@]2(C)[C@H]2CC[C@@]3(C)[C@@H](CC[C@@]34CCC(=O)O4)[C@H]12 [SPIRONOLACTONE]
26 µM

Indicate its recorded AC50; the molecule in question is CNC(=O)c1cc(Oc2ccc(NC(=O)Nc3ccc(Cl)c(C(F)(F)F)c3)c(F)c2)ccn1 [REGORAFENIB]
> 30 µM

Indicate its recorded AC50; the molecule in question is CCCN(CC)C(CC)C(=O)Nc1c(C)cccc1C (configuration not stated) [ETIDOCAINE]
> 30 µM

Indicate its recorded AC50; the molecule in question is CC1(C)O[C@@H]2C[C@H]3[C@@H]4C[C@H](F)C5=CC(=O)C=C[C@]5(C)[C@H]4[C@@H](O)C[C@]3(C)[C@]2(C(=O)CO)O1 [FLUNISOLIDE]
> 30 µM

====

- target.desc: Melanocortin receptor 3 (Homo sapiens, UniProt P41968); also: assay procedure not described here
- Sequence (P41968 whole entry): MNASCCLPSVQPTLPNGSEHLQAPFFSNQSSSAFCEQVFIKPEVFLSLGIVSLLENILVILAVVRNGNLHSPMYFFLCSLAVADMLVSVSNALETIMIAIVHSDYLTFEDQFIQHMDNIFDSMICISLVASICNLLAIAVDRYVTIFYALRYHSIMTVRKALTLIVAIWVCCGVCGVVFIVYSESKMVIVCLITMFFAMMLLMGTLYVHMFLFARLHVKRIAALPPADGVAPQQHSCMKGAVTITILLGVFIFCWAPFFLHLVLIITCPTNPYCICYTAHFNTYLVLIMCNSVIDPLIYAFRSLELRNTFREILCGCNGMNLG
value.type: AC50

- O=C(O)CSCC(=O)NC1CCSC1=O (stereo not drawn): > 30 µM
- CC(CCc1ccccc1)NC(C)C(O)c1ccc(O)cc1 (stereo not drawn): > 30 µM
- O=C(O)c1ccccc1Nc1cccc(C(F)(F)F)c1: > 30 µM
- COC(=O)N[C@@H](C)CNc1nccc(-c2cn(C(C)C)nc2-c2cc(Cl)cc(NS(C)(=O)=O)c2F)n1: > 30 µM
- CN(C)c1cc(CNCC(C)(C)C)c(O)c2c1C[C@H]1C[C@H]3[C@H](N(C)C)C(O)=C(C(N)=O)C(=O)[C@@]3(O)C(O)=C1C2=O: > 30 µM
- Clc1cccc(Cl)c1N=C1NCCN1: > 30 µM
- CC(=N)N1CC[C@H](SC2=C(C(=O)O)N3C(=O)[C@H]([C@@H](C)O)[C@H]3C2)C1: > 300 µM

# context switch: different compound, same AC50
Indicate its recorded AC50; the compound in question is `C#C[C@]1(O)CC[C@H]2[C@@H]3CCc4cc(OC)ccc4[C@H]3CC[C@@]21C`
> 10 µM

====

- target.desc: Histamine H3 receptor (Homo sapiens, UniProt Q9Y5N1); also: assay procedure not described here
- Sequence (Q9Y5N1 whole entry): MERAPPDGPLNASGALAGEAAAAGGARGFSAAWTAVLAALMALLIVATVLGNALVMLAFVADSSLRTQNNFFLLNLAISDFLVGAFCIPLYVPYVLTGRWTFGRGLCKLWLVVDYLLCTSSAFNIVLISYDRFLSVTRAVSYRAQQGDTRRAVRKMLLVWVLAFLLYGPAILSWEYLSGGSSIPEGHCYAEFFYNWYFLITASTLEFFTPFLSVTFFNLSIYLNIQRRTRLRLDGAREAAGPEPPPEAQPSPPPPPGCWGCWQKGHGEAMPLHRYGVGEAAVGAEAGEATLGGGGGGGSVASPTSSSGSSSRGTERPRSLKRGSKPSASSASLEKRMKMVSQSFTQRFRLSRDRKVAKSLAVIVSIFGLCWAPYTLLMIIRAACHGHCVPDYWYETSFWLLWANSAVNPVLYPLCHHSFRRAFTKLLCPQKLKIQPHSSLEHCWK
AC50 values by entry

* CC(C)N(CCCCOCC(=O)NS(C)(=O)=O)c1cnc(-c2ccccc2)c(-c2ccccc2)n1 | > 30 µM
* C[C@]12CC[C@H](O)CC1=CC[C@@H]1[C@@H]2CC[C@]2(C)C(c3cccnc3)=CC[C@@H]12 | > 10 µM
* CC(C)(C)NCC(O)c1cc(Cl)c(N)c(Cl)c1 (stereo not given) | > 30 µM
* CCOc1cc(CC(=O)N[C@@H](CC(C)C)c2ccccc2N2CCCCC2)ccc1C(=O)O [REPAGLINIDE] | > 30 µM

Indicate its recorded AC50; the molecule in question is CC(=O)Oc1ccccc1C(=O)Nc1ncc([N+](=O)[O-])s1 [NITAZOXANIDE]
10 µM
